Would you kindly list GI50 for each of these compounds?
Test system: UO-31 renal
protocol-details: NCI tumour cell line growth inhibition, 48 h

Form field GI50, entry COc1cccc2c(=O)c3c(sc12)c(NCCN(C)C)nc1ccccc13 : 0.461 µM

Notebook: CC1/C(=N/Nc2ccc([N+](=O)[O-])cc2)CC2C3(C)CCC2(C(C)C(=O)O)C(=O)C13 (stereo not drawn) , GI50 read as 4.31 µM

The recorded GI50 for entry Cc1nn(-c2nc3ccccc3[nH]2)c2c1C(c1ccc3c(c1)OCO3)CC(=O)N2 (stereo not drawn) equals 2.73 µM

The value of GI50 measured for the compound CN(C)c1ccc(O)c2c1C[C@H]1C[C@H]3[C@H](N(C)C)C(=O)C(C(N)=O)=C(O)[C@@]3(O)C(=O)C1=C2O turned out to be 3.65 µM

// sample COc1cc(/C=C/C(=O)c2c(C)n([O-])c3ccc(Cl)cc3[n+]2=O)cc(OC)c1OC , its GI50 was 1.55 µM

// N=C(N)c1ccc(-c2ccc(-c3cccs3)s2)nc1 : GI50 value = 0.545 µM

Notebook: COC(=O)[C@@]1(O)C[C@H]2O[C@]1(C)n1c3ccccc3c3c4c(c5c6ccccc6n2c5c31)C(=O)NC4 , GI50 read as 0.0256 µM

Lab note: measured GI50 of C[CH2][Sn]([Cl])([Cl])[CH2]C was 97.8 µM

Note to self: GI50 recorded for O=C(N/N=C\c1ccc(N(CCCl)CCCl)cc1Cl)c1cccnc1 was 14.6 µM

Entry COc1ccc2nc(C)cc(Nc3ccccc3O)c2c1 , GI50 reported as 21.2 µM

// GI50 value for C=C1CC[C@@H]2[C@](C)(COC(C)=O)[C@H](OC(C)=O)CC[C@@]2(C)[C@@H]1C/C=C1/C(=O)OC[C@H]1OC(C)=O : 1.91 µM

GI50 reading for O=C1/C(=C/c2ccc(Cl)cc2)COc2ccc(O)c(O)c21 : 0.458 µM

Record summary for COCCNC(=O)c1ccc(-c2nc3ccc4[nH]ncc4c3c3c2CCCC3)cc1 : reported GI50 = 1.58 µM

###

Test system: A549 NSCLC
protocol-details: NCI tumour cell line growth inhibition, 48 h
measurement-kind: TGI

The compound C=C1C(=O)O[C@H]2[C@H]1CC/C(CNS(=O)(=O)c1cccc3ccccc13)=C\CC[C@@]1(C)O[C@@H]21 showed TGI equal to 32.4 µM

TGI in this record for CS(=O)(=O)Nc1cc(-c2ccc3ncnc(Nc4ccc5c(cnn5Cc5ccccc5F)c4)c3c2)cnc1Cl : > 53.7 µM

Given item Fc1ccc(Nc2nnc(-c3ccccn3)s2)cc1 , the value recorded as its TGI is > 100 µM

Recorded TGI (compound N=C(N)c1ccc(-c2ccc(-c3cccs3)s2)nc1 ): 1.28 µM

Briefly, TGI measured for COc1cc([C@@H]2OC(=O)C3C2C(=O)O[C@H]3c2cc(OC)c(OC)c(OC)c2)cc(OC)c1OC (some centres not stated) : > 100 µM

TGI reported for this compound COc1ccc(NS(=O)c2ccc(OC)cc2)cc1 (configuration not stated) : > 100 µM

// sample OC(C/C(=N\N=C(/CC(O)(C(F)(F)F)C(F)(F)F)c1ccccc1)c1ccccc1)(C(F)(F)F)C(F)(F)F , its TGI was > 10 µM

response.value for COc1cc(C2c3cc4c(cc3OC(NCc3ccccc3)C2C)OCO4)cc(OC)c1OC (configuration not stated) (field: TGI) = > 94 µM

Input C=CCCCCCC(O)C(O)C/C=C\C/C=C\CC (configuration not stated) . Output TGI: > 18.8 µM

The reported value for N#CC(C#N)=C1SCC(=O)CS1 in terms of TGI is > 100 µM

Record CC(=O)c1cccc(NC(=O)C(=O)C(C(=O)c2ccccc2F)C2OC(=O)c3ccccc32)c1 (configuration not stated) , field TGI: > 100 µM

response.value for CC(=O)N1C2=CCCC2(C)c2ccccc21 (configuration not stated) (field: TGI) = > 100 µM

The compound identified as CC1=Nn2c(nnc2-c2ccc(N)cc2)NC(C)(C)C1 registered its TGI at > 100 µM

For COc1ccc2c(c1)OC(N)=C(C#N)C2c1ccc(F)cc1 (configuration not stated) the compound record lists TGI as > 100 µM

Form: compound = Clc1ccc(-c2nnc(C34CC5CC(CC(C5)C3)C4)o2)cc1 ; TGI = > 100 µM

# compound N#C[S-].[Au+].c1ccc(CN2[CH-]N(Cc3ccccc3)C(c3ccccc3)=C2c2ccccc2)cc1 ; its TGI = 3.24 µM

// field: TGI; key: C/C(=N\O)C(CN1CCCCC1)C(c1ccccc1)c1c(O)c2ccccc2oc1=O (configuration not stated) ; value = > 100 µM
